target: P2Y purinoceptor 1 (Homo sapiens, UniProt P47900); assay: Percent inhibition of agonist-induced calcium mobilization at P2Y purinoceptor 1 recombinantly expressed in human HEK293 cells at 100 uM dose; type: functional, cell-based; conditions: in the assay text read “native in” for “recombinantly expressed in”
Sequence (P47900 whole entry): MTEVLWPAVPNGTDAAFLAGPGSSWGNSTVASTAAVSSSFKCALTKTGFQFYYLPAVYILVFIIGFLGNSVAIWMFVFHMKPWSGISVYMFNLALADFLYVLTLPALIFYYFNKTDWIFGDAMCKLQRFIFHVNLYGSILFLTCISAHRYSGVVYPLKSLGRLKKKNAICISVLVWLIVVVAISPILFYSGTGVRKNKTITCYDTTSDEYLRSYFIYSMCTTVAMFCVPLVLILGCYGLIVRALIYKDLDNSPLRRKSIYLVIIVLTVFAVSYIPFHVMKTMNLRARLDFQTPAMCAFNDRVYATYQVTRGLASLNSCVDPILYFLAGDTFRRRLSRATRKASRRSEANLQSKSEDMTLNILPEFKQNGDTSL
Value type: inhibition (%)
Write it as a number; the unit % goes unstated.

Entry `O=C(Nc1cccc(C(=O)Nc2cc(C(=O)Nc3ccc(S(=O)(=O)O)c4cc(S(=O)(=O)O)cc(S(=O)(=O)O)c34)ccc2Cl)c1)Nc1cccc(C(=O)Nc2cc(C(=O)Nc3ccc(S(=O)(=O)O)c4cc(S(=O)(=O)O)cc(S(=O)(=O)O)c34)ccc2Cl)c1` , inhibition reported as 40.6

Entry `CCc1ccc(C(=O)Nc2ccc(S(=O)(=O)O)c3cc(S(=O)(=O)O)cc(S(=O)(=O)O)c23)cc1NC(=O)Nc1cc(C(=O)Nc2ccc(S(=O)(=O)O)c3cc(S(=O)(=O)O)cc(S(=O)(=O)O)c23)ccc1CC` , inhibition reported as 38.4

Entry `CC(C)c1ccc(C(=O)Nc2ccc(S(=O)(=O)O)c3cc(S(=O)(=O)O)cc(S(=O)(=O)O)c23)cc1NC(=O)c1cccc(NC(=O)Nc2cccc(C(=O)Nc3cc(C(=O)Nc4ccc(S(=O)(=O)O)c5cc(S(=O)(=O)O)cc(S(=O)(=O)O)c45)ccc3C(C)C)c2)c1` , inhibition reported as 45

These entries and their values trace back to ChEMBL document CHEMBL1140384.
